Where do the numbers come from? From ChEMBL document CHEMBL3433997.

Target: Solute carrier family 2, facilitated glucose transporter member 1 (Homo sapiens) (UniProt P11166)
Sequence (P11166 whole entry): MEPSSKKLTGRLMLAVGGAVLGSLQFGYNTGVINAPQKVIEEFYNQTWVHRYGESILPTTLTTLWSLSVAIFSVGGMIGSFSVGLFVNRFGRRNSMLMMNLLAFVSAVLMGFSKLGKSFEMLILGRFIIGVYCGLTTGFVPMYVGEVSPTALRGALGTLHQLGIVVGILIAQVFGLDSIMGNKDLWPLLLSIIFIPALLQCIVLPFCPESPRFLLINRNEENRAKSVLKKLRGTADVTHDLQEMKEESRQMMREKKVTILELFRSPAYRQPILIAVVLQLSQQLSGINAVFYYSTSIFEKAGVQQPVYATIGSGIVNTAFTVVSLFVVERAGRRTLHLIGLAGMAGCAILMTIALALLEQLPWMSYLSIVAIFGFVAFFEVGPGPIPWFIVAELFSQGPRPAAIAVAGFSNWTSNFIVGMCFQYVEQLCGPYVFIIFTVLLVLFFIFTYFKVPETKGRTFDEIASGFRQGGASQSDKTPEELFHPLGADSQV
Assay: ST_JUDE_LEISH: Cytotoxicity at 2uM final concentration against transgenic Leishmania Mexicana promastigotes LmGLUT1 that are glucose transport deficient and complemented with the human glucose transporter GLUT1. Activity is measured by DNA content using SYBR green in vitro
Format: functional
assay endpoint: inhibition

Observe how each entry below is paired with its result.
CN(C)c1ccc(/C=C2\S/C(=N\c3ccccc3)N(c3ccccc3)C2=O)cc1[N+](=O)[O-] = 2.12%
O=C(NCCc1ccc(Cl)c(Cl)c1)C1CCCN(C(=O)c2ccc(O)c(-c3ccc(Cl)c(Cl)c3)c2)C1 (stereo not given) = 1.33%
c1ccc(CNCc2cccc(-c3ccc(-c4nc5ccccc5[nH]4)s3)c2)cc1 = 4.03%
CC(C)NCc1cccc(-c2cccc(-c3nc4cc(F)ccc4[nH]3)c2)c1 = 14.2%
N=C(/N=C(/NCCCCCCN/C(=N\C(=N)Nc1ccc(Cl)cc1)N1CCCCC1)N1CCCCC1)Nc1ccc(Cl)cc1 = -2.47%

Req: Read the entry Cn1cnc(CCNC(=O)c2cccc(-c3csc(-c4nc5ccccc5[nH]4)c3)c2)c1 and write its reported inhibition.
Resp: -1.62%
